# System: SW620 human colorectal cancer cells
# assay_summary: Potentiation of the growth inhibiting activity of MMS, MTT based cell viability assay
# test_settings: read-out: Compounds potentiate the growth inhibiting activity of MMS (IC50); SW620 cells, medium containing 1.5 μg/ml MMS, 5 days (120 hours), MTT
property_measured: pIC50
pIC50 is defined as minus the log10 of a concentration measured in mol/L.

What the record says about "O=C(c1cc(Cn2c3c(c(=O)[nH]c2=O)CCCC3)ccc1F)N1CCN(C(=O)C2CCOCC2)CC1" : pIC50 is 7.21

What the record says about "O=C(c1cccc(Cn2c3c(c(=O)[nH]c2=O)CCC3)c1)N1CCN(c2ncccn2)CC1" : pIC50 is 6.86

What the record says about "O=C(c1cc(Cn2c3c(c(=O)[nH]c2=O)SCCC3)ccc1F)N1CCN(c2ncccn2)CC1" : pIC50 is 8.12

---
What the record says about CC1CCCc2c1c(=O)[nH]c(=O)n2Cc1ccc(F)c(C(=O)N2CCN(c3ccccn3)CC2)c1 (centres unmarked) : pIC50 is 7.09

What the record says about "O=C(c1ccc(F)c(Cn2c3c(c(=O)[nH]c2=O)CCCC3)c1)N1CCN(c2ncccn2)CC1" : pIC50 is 8.39

The measured values listed here are drawn from patent US20140275711A1.
